Experiment: Clearance in Sprague-Dawley rat at 25 mg/kg, iv measured for 24 hrs by LC-MS/MS analysis
Assay type: ADME, organism-based
Conditions: in vivo
readout type: clearance (mL/min/kg)
The response must be a number in mL/min/kg with no trailing unit.

clearance for O=C(NO)c1ccccc1Nc1nc(Nc2ccc(OCCN3CCOCC3)cc2)ncc1Cl is 9.23

---

For Epidermal growth factor receptor (Homo sapiens), measured IC50 is reported for the entries below.
The response must be a number in µM with no trailing unit.

// solved cases for IC50 follow
>>> measured("O=C(CN1CCOCC1)Nc1ccc(Nc2ncc(Cl)c(Nc3ccccc3C(=O)NO)n2)cc1")
0.126
>>> measured("CCOC(=O)c1ccccc1Nc1nc(Nc2ccc(OCC(=O)N3CCOCC3)cc2)ncc1Cl")
0.032
>>> measured("CNC(=O)c1ccccc1Nc1nc(Nc2ccc(CN3CCC(C(=O)NO)CC3)cc2)ncc1Cl")
0.0011
>>> measured("CN1CCN(c2ccc(Nc3ncc(Cl)c(Nc4ccccc4C(=O)NO)n3)cc2)CC1")
0.00656
>>> measured("CNC(=O)c1ccccc1Nc1nc(Nc2ccc(N3CCC(C(=O)NO)CC3)cc2)ncc1Cl")
0.119
>>> measured("O=C(COc1ccc(Nc2ncc(Cl)c(Nc3ccccc3C(=O)NO)n2)cc1)NO")
0.0502

Now look at this entry.
Record O=C(NO)c1ccccc1Nc1nc(Nc2ccc(OCCCN3CCOCC3)cc2)ncc1Cl / Epidermal growth factor receptor (Homo sapiens), IC50 recorded as 0.00125
